Data credit: ChEMBL document CHEMBL5247610

- method summary: Selectivity index, ratio of IC50 for human L02 cells to IC50 for human A549 cells by MTT assay
- Format: toxicity
- condition: L02 cells versus A549 cells, read-out: Ratio IC50
Measured selectivity ratio values are reported for all entries that follow.
Please give the numeric answer without any surrounding text.

smiles_structure=CC1=C(O)C(=O)C=C2C1=CC=C1[C@@]2(C)CC[C@@]2(C)[C@@H]3C[C@](C)(C(=O)O)CC[C@]3(C)CC[C@]12C measured_result=0.22

Next molecule, please.
Problem: For CN(C)CCCNC(=O)c1cc2cc(Nc3nccc(-c4cccnc4)n3)ccc2[nH]1 , what is its reported selectivity ratio?
Solution: 1.7
